system: 621-102 (TSC2-deficient); experiment: relative viability vs DMSO; higher = less cytotoxic; settings: 0.0001 µM; serum: 10% FBS; 72 h;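 also: immortalized renal angiomyolipoma cells stably carrying empty vector or TSC2, dosed in 384-well plates in DMEM, viability normalized to vehicle-treated wells within each plate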
Counter-ions that a name gives are not always drawn.
assay_endpoint: relative viability (%)
Supply the numeric figure in %, leaving out any unit text.

Answer with the recorded relative viability for the molecule listed here: CC(=O)c1c(C)c2cnc(Nc3ccc(N4CCNCC4)cn3)nc2n(C2CCCC2)c1=O
103

Determine its reported relative viability: CN1CC[C@H](c2c(O)cc(O)c3c(=O)cc(-c4ccccc4Cl)oc23)[C@H](O)C1 [Flavopiridol HCl]
103

Let me know recorded relative viability for COc1cc2c(N3CCN(C(=O)Nc4ccc(OC(C)C)cc4)CC3)ncnc2cc1OCCCN1CCCCC1 [Tandutinib (MLN518)] , thanks.
107

Give the reported relative viability for this molecule. CC1(C)CNc2cc(NC(=O)c3cccnc3NCc3ccncc3)ccc21 [Motesanib DiPhosphate]
104

Dear colleague, please send me the reported relative viability for NC(=O)N1c2ccccc2C=Cc2ccccc21 [Carbamazepine (Carbatrol)] when you can.
93.1

Output relative viability of CN(C)C(=O)[C@H](O)[C@H](Cc1ccccc1)NC(=O)c1cc2cc(Cl)ccc2[nH]1
103

Write down relative viability measured for item OC(CN1CCN(c2cccc(Cl)c2)CC1)C(c1ccccc1)c1ccccc1 (centres undefined)
102

Quote relative viability reported for Cc1ncc(-c2ccnc(Nc3ccc(S(C)(=O)=O)cc3)n2)n1C(C)C [AZD5438] please.
103

For the molecule C[C@H](N[C@@H](CCc1ccccc1)C(=O)O)C(=O)N1CCC[C@H]1C(=O)O [Enalaprilat] , give its measured relative viability value.
97.6

* * *

test system: 621-103 (TSC2-rescued); assay: relative viability vs DMSO; higher = less cytotoxic; conditions: 0.0001 µM; serum: 10% FBS; 72 h
Counter-ions that a name gives are not always drawn.
assay_endpoint: relative viability (%)
Field format: number, assumed %, no unit text.

Would you please give the reported relative viability of COc1ccccc1N1CCN(CC(O)COc2cccc3ccccc23)CC1 (centres undefined) [Naftopidil Dihydrochloride] with 621-103 (TSC2-rescued)?
110

Report relative viability from 621-103 (TSC2-rescued) testing of CC(C)(Cc1ccc2ccccc2c1)NC[C@@H](O)COc1cccc(Cl)c1C#N
111

Name the value of relative viability reported for O=c1oc2cc(O)ccc2s1 when tested on 621-103 (TSC2-rescued).
71.1

State relative viability on 621-103 (TSC2-rescued). Entry: COc1ccnc2[nH]cc(C(=O)C(=O)N3CCN(C(=O)c4ccccc4)C[C@H]3C)c12
112

* * *

Field: relative viability. Provide a value for each of the compounds that follow.
tested on: 621-103 (TSC2-rescued); test: relative viability vs DMSO; higher = less cytotoxic; conditions: 10 µM; serum: 10% FBS; 72 h
Counter-ions that a name gives are not always drawn.
Return type: number; implicit unit %.

Recall and state the measured relative viability for Nc1nc(=O)[nH]cc1F .
98.9

Specify measured relative viability for NC(=O)c1cccc(-c2cccc(OC(=O)NC3CCCCC3)c2)c1 .
113

Return relative viability (reported value) for this compound: CN1CCN(C2=Nc3cc(Cl)ccc3Nc3ccccc32)CC1
92.7

Return the recorded relative viability value; entry: Fc1cc(-c2cccc3ncc(-c4cnn(C5CCNCC5)c4)nc23)cc(F)c1CN1CCOCC1 [NVP-BSK805 dihydrochloride]
4.07

Indicate the recorded relative viability value for this compound: O=C(O)c1ccc2c(c1)nc(Nc1cccc(Cl)c1)c1ccncc12
72.5

Identify relative viability associated with the compound O=c1cc(-c2ccc(O)c(O)c2)oc2cc(O)cc(O)c12
92.4

Find the measured relative viability of CCC[C@H](NC(=O)/C(C#N)=C/c1cccc(Br)n1)c1ccccc1 and report it.
11.4

Give the measured relative viability for CCN1CCN(C(=O)Cc2ccc(Nc3ncc(F)c(Nc4ccc(C(=O)Nc5ccccc5Cl)cc4)n3)cc2)CC1
0.915

Output relative viability of c1ccc2c(CCNc3ccc(Nc4ccncc4)cc3)c[nH]c2c1
64.7

State its relative viability: Cc1ccc(S(=O)(=O)OCC(=O)Nc2ccc(C(=O)O)c(O)c2)cc1
101

Tell me its relative viability given CC(NC(C)(C)C)C(=O)c1cccc(Cl)c1 (configuration not stated) as the entry.
102

Assign relative viability to the following record: CC1(C)CC(=O)c2c(C(F)(F)F)nn(-c3ccc(C(N)=O)c(N[C@H]4CC[C@H](O)CC4)c3)c2C1
6.78

Check the records and state relative viability for O=c1cc(-c2ccc(O)cc2)oc2cc(O)cc(O)c12
125

Name the recorded relative viability of the item O=C1[C@H](Cc2ccc(O)cc2)N2C(=O)CCN(C(=O)NCc3ccccc3)[C@H]2CN1Cc1cccc2ccccc12 in your answer.
37.8

Fill in reported relative viability for this entry: COC(=O)Nc1ccc(-c2nc(N3CCOCC3)c3cnn(C4CCN(Cc5cccnc5)CC4)c3n2)cc1
23.1

Consider the compound C[C@]12CC[C@H]3[C@@H](CC[C@@]45O[C@@H]4C(O)=C(C#N)C[C@]35C)[C@@H]1CC[C@@H]2O . State its measured relative viability.
100

Determine from records and report relative viability for Nc1ccn([C@@H]2O[C@H](CO)[C@@H](O)C2(F)F)c(=O)n1 [Gemcitabine Hydrochloride]
28.5

* * *

tested on: 621-103 (TSC2-rescued); assay: relative viability vs DMSO; higher = less cytotoxic; conditions: 10 µM; serum: 10% FBS; 72 h
Where a name gives a salt, the structure may show the parent alone.
Classify: class 1 when relative viability is strictly less than 90%; class 0 when relative viability is not.

Quick check: relative viability of C=CC(=O)Nc1cccc(Oc2nc(Nc3ccc(N4CCN(C)CC4)cc3OC)ncc2Cl)c1 under 90%?
class 1

Lab note: confirm whether the reported relative viability for this compound is below 90%, equality not counting. compound: CO[C@@H](C(=O)N1Cc2[nH]nc(NC(=O)c3ccc(N4CCN(C)CC4)cc3)c2C1)c1ccccc1
class 1

Does this compound meet the criterion relative viability < 90%? Nc1[nH]cnc2ncnc1-2 [Adenine HCl]
class 0

I'd appreciate it if you could check whether N=C(N)NC(=N)NCCc1ccccc1 [Phenformin HCl] has relative viability smaller than 90%.
class 0

Decide: relative viability of FC(F)c1nc2ccccc2n1-c1nc(N2CCOCC2)nc(N2CCOCC2)n1 strictly below 90%?
class 1

Below 90% on relative viability? Entry COCC[n+]1c2c(n(Cc3cnccn3)c1C)C(=O)c1ccccc1C2=O
class 1

Please determine if COc1cc2c(cc1OC)C(=O)C(CC1CCN(Cc3ccccc3)CC1)C2 (centres undefined) [Donepezil HCl] is below 90% in terms of relative viability.
class 0

Is 90% strictly greater than the compound's reported relative viability? compound: COC(=O)N1CCN(Cc2cccc(NC(=O)Nc3ccc(C)nc3)c2F)CC1
class 0

Hello, is relative viability of the following compound strictly smaller than 90%? O=C1c2ccccc2C(=O)c2c1ccc(O)c2O
class 0

Hello, is relative viability of the following compound strictly smaller than 90%? Cc1ccc(NC(=O)c2ccc(CN3CCN(C)CC3)cc2)cc1Nc1nccc(-c2cccnc2)n1 [Imatinib (STI571)]
class 0

Quick check: relative viability of NC(=O)c1cccc2[nH]c(-c3ccc(C4CCCN4)cc3F)nc12 (centres undefined) under 90%?
class 0

Does the reported relative viability of the following compound sit strictly below 90%? COC(=O)Nc1ccc(-c2nc(N3CCOCC3)c3cnn(C4CCN(C(=O)OC)CC4)c3n2)cc1
class 1

Does the reported relative viability of the following compound sit strictly below 90%? C[C@H](N[C@@H](CCc1ccccc1)C(=O)O)C(=O)N1CCC[C@H]1C(=O)O
class 0

Hi there! Is relative viability for O=C1NC(=O)/C(=C/c2ccc(-c3ccc(F)cc3O)o2)S1 below 90%, do you know?
class 0

Lab note: confirm whether the reported relative viability for this compound is below 90%, equality not counting. compound: Nc1nc(Cl)nc2c1ncn2[C@H]1C[C@H](O)[C@@H](CO)O1
class 1

Dear colleague, could you confirm whether relative viability of Cc1ccccc1-n1c(Cn2cnc3c(N)ncnc32)nc2cccc(C)c2c1=O falls below 90%? Thanks.
class 0

Is relative viability strictly under 90% for the entry COc1ccccc1N1CCN(CC(O)COc2cccc3ccccc23)CC1 (centres undefined) [Naftopidil Dihydrochloride] ?
class 0

* * *

So I've got a bunch of compounds here, and I need their relative viability values.
system: 621-102 (TSC2-deficient); test: relative viability vs DMSO; higher = less cytotoxic; conditions: 0.01 µM; serum: 10% FBS; 72 h
Where a name gives a salt, the structure may show the parent alone.
State just the number; it will be interpreted in %.

Tell me measured relative viability for CC(=O)O[C@@]12CO[C@@H]1C[C@H](O)[C@@]1(C)C(=O)[C@H](O)C3=C(C)[C@@H](OC(=O)[C@H](O)[C@@H](NC(=O)OC(C)(C)C)c4ccccc4)C[C@@](O)([C@@H](OC(=O)c4ccccc4)[C@H]21)C3(C)C please.
33.5

Indicate its recorded relative viability; the compound in question is COc1cc(Nc2ncc3c(n2)-c2ccc(Cl)cc2C(c2c(F)cccc2OC)=NC3)ccc1C(=O)O
95.7

Give recorded relative viability. COc1ccccc1N1CCN(CCN2C(=O)CC3(CCCC3)CC2=O)CC1
100

Give a short answer stating reported relative viability for O=C(Nc1cccnc1)N1CCC(Cc2cccc(Oc3ccc(C(F)(F)F)cn3)c2)CC1 .
104

Return value of relative viability for input CC(C)c1cc(-c2ccc(F)c3ccccc23)nc(N)n1 , no commentary.
99.3

Dear colleague, please send me the reported relative viability for O=C(Nc1cccc(Cl)c1)Nc1ncc(CCNc2ncnc3ccsc23)s1 [SNS-314 Mesylate] when you can.
83.1

Assign relative viability to the following record: CN(C)C(=O)C(CCN1CCC(O)(c2ccc(Cl)cc2)CC1)(c1ccccc1)c1ccccc1 [Loperamide HCl]
99.2
